Please provide measured inhibition for the entries that follow.
# experimental_target: UniProt P24941
# test_method_notes: Enzyme Assay
# run_conditions: concentration not given here
Give your result in % as a bare value.

(Q) Fill: inhibition (UniProt P24941) for this compound `Nc1nc(NC2CCN(C(=O)/C=C/C=C/c3ccccc3)CC2)sc1C(=O)c1c(F)cccc1F`
(A) 58

(Q) Fill: inhibition (UniProt P24941) for this compound `Cc1ccc(CCCC(=O)N2CCC(Nc3nc(N)c(C(=O)c4c(F)cccc4F)s3)CC2)cc1`
(A) 38

(Q) Fill: inhibition (UniProt P24941) for this compound `Nc1nc(NC2CCN(C(=O)c3cccnc3)CC2)sc1C(=O)c1c(F)cccc1F`
(A) 28

(Q) Fill: inhibition (UniProt P24941) for this compound `Nc1nc(NC2CCN(C(=O)COc3ccc(F)cc3)CC2)sc1C(=O)c1c(F)cccc1F`
(A) 83

(Q) Fill: inhibition (UniProt P24941) for this compound `Cc1ccnc(SCC(=O)N2CCC(Nc3nc(N)c(C(=O)c4c(F)cccc4F)s3)CC2)n1`
(A) 86

(Q) Fill: inhibition (UniProt P24941) for this compound Nc1nc(NC2CCN(C(=O)CCC3CCCCC3=O)CC2)sc1C(=O)c1c(F)cccc1F (stereo not drawn)
(A) 50

(Q) Fill: inhibition (UniProt P24941) for this compound `CC(=O)Oc1c(C)cccc1C(=O)N1CCC(Nc2nc(N)c(C(=O)c3c(F)cccc3F)s2)CC1`
(A) 50

(Q) Fill: inhibition (UniProt P24941) for this compound `COC(=O)[C@H]1CC=CC[C@H]1C(=O)N1CCC(Nc2nc(N)c(C(=O)c3c(F)cccc3F)s2)CC1`
(A) 22

* * *

# experimental_target: CDK2 (human)
# test_method_notes: Enzyme Assay
# run_conditions: concentration not given here
endpoint_name: inhibition (%)
Give your result in % as a bare value.

(Q) Give inhibition for the following compound: `CCC(C)(C)C(=O)N1CCC(Nc2nc(N)c(C(=O)c3c(F)cccc3F)s2)CC1`
(A) 32

(Q) Give inhibition for the following compound: `Cc1ccccc1CCC(=O)N1CCC(Nc2nc(N)c(C(=O)c3c(F)cccc3F)s2)CC1`
(A) 48

(Q) Give inhibition for the following compound: `Nc1nc(NC2CCN(C(=O)CCC(F)(F)F)CC2)sc1C(=O)c1c(F)cccc1F`
(A) 45

(Q) Give inhibition for the following compound: `Nc1nc(NC2CCN(C(=O)CCN3CCCCC3)CC2)sc1C(=O)c1c(F)cccc1F`
(A) 15

(Q) Give inhibition for the following compound: `C=CCC(=O)N1CCC(Nc2nc(N)c(C(=O)c3c(F)cccc3F)s2)CC1`
(A) 15

(Q) Give inhibition for the following compound: `COCCOCC(=O)N1CCC(Nc2nc(N)c(C(=O)c3c(F)cccc3F)s2)CC1`
(A) 73

(Q) Give inhibition for the following compound: `Nc1nc(NC2CCN(C(=O)Cc3cc(F)c(F)c(F)c3)CC2)sc1C(=O)c1c(F)cccc1F`
(A) 57

(Q) Give inhibition for the following compound: `Nc1nc(NC2CCN(C(=O)Cc3cccc(Cl)c3)CC2)sc1C(=O)c1c(F)cccc1F`
(A) 62

(Q) Give inhibition for the following compound: Nc1nc(NC2CCN(C(=O)C(O)c3cc(F)cc(F)c3)CC2)sc1C(=O)c1c(F)cccc1F (stereo not drawn)
(A) 52

(Q) Give inhibition for the following compound: `CO[C@@](C(=O)N1CCC(Nc2nc(N)c(C(=O)c3c(F)cccc3F)s2)CC1)(c1ccccc1)C(F)(F)F`
(A) -6

(Q) Give inhibition for the following compound: `Nc1nc(NC2CCN(C(=O)c3ccc(F)c(F)c3)CC2)sc1C(=O)c1c(F)cccc1F`
(A) 56

(Q) Give inhibition for the following compound: `C/C=C/CC(=O)N1CCC(Nc2nc(N)c(C(=O)c3c(F)cccc3F)s2)CC1`
(A) 62

(Q) Give inhibition for the following compound: `Cc1cc(C)c(S(=O)(=O)N2CCC(Nc3nc(N)c(C(=O)c4c(F)cccc4F)s3)CC2)c(C)c1`
(A) -14
